test system: SK-OV-3 ovarian; experiment: NCI-60 one-dose screen, 48 h (100 = growth as untreated, 0 = no growth, -100 = all killed); details: 10 µM unless noted
The panel holds about 83,000 compounds, 20% with a hit somewhere; the sample as a whole holds those more often.
Give measured growth for each item. Keep answers brief.
Give bare numbers, in %.

C=C(C(N)=O)C(N)C(=O)O (stereo unspecified) = 112
O=C(CCl)N(c1ccccc1)c1ccccc1 = 114
Cc1ccc2c(c1)sc(-c1ccc(N(C)C)cc1)[n+]2C = -14.2
O=C1C=CC(=O)N1c1ccccc1 = 109
CC1(O)CCCCCC1 = 93.9

Measured growth for this entry `CCN(CC)c1ccc(/C=C\C(=O)c2ccc(NC(C)=O)cc2)cc1` on SK-OV-3 ovarian: 69.2

----------
Give measured growth for each item. Keep answers brief.
test system: U251 CNS; assay: NCI-60 one-dose screen, 48 h (100 = growth as untreated, 0 = no growth, -100 = all killed); details: 10 µM unless noted
About 83,000 compounds went through this panel and 20% of them were active in at least one assay; those are over-represented in the sample as a whole.
Numbers only, in %.

Here are 5 compounds together with their reported answers.
CN(C)c1ccc(/C=C/c2sc3ccc4ccccc4c3[n+]2C)cc1 = -51.2
CCOC(=O)/C(=C\c1ccc2ccccc2c1)P(=O)(OCC)OCC = 38.2
Cc1ccc(Nc2ccc(O)c3c2C(=O)c2c(O)ccc(Nc4ccc(C)cc4)c2C3=O)cc1 = 99.8
Clc1ccc(-n2ncc3c(NCCCN4CCOCC4)ncnc32)cc1 = 93.1
Cc1cc2nc(CC(=O)c3ccncc3)c(=O)[nH]c2cc1C = 77.2

I have 4 compounds here; please give me growth for each one.
1. CN=C(N)N/N=C(\c1ccccc1)c1ccc(Br)cc1
2. CN(Cc1ccccc1)c1ccc(SC#N)cc1
3. O=C1/C(=C/c2ccccn2)CCc2ccccc21
4. O=[N+]([O-])c1ccc(N2CCN(Cc3ccccc3)CC2)c2c1no[n+]2[O-]

Reply:
[-9.13, 73.4, 100, -47.8]

----------
system: CAKI-1 renal; experiment: NCI-60 one-dose screen, 48 h; conditions: 10 µM unless noted
About 83,000 compounds went through this panel and 20% of them were active in at least one assay; those are over-represented in the sample as a whole. Calls of active or inactive are those of the source. How the source made its calls: active means growth percent below 10; inactive means the rest.
Result category, one only: label 1 for active, label 0 for inactive

O=C1C(=O)c2cccnc2-c2ncccc21 = label 1
Cc1ccccc1NC(=O)Cc1csc2[n+]1C(=O)/C(=C/c1ccc([N+](=O)[O-])cc1)S2 = label 0
COc1cc(/C=C2\SC(=S)N(/C=C/c3nc4ccccc4[nH]c3=O)C2=O)cc(OC)c1OC = label 0
CCCCCCCCCCCC1N=C(N)N=C(N)N1c1cccc(Br)c1 (configuration not stated) = label 0
COC(=O)C(=[N+]=[N-])C(=O)c1ccc([N+](=O)[O-])o1 = label 0
CCCCN(CCCC)CCCCCCCCCCO = label 0
CCCCCCN(CCCCCC)CCCNc1nccc2ccccc12 = label 0
CCOC(=O)c1c(C)[nH]c2ccc(O)cc12 = label 0
COc1ccc(/C=C2/C(=O)ON=C2C)cc1 = label 0
Oc1ccc2ccccc2c1N=Nc1ccccn1 = label 0

Task item: Short answer needed: outcome of this test for `Cc1c(O)ccc(SC#N)c1C` ?
Reply: label 0

Task item: Short answer needed: outcome of this test for `NC1=C(Br)C(=O)c2ncccc2C1=O` ?
Reply: label 1

Task item: Short answer needed: outcome of this test for `Cc1ccc(N2C(=O)C=CC2=O)cc1` ?
Reply: label 0

Task item: Short answer needed: outcome of this test for `CCOC(=O)c1[nH]c(C#N)c(C(=O)OCC)c1C` ?
Reply: label 0

Task item: Short answer needed: outcome of this test for `O=[N+]([O-])c1ccc([I+]c2ccccc2)cc1` ?
Reply: label 0

Task item: Short answer needed: outcome of this test for O=C(c1ccccc1)C(Br)[N+](=O)[O-] (configuration not stated) ?
Reply: label 0

Task item: Short answer needed: outcome of this test for `Cc1cc(=O)oc2cc(O)cc(O)c12` ?
Reply: label 0
